# TEST_TARGET: rGmolOBP7 (recombinant GmolOBP7) (Grapholita molesta, UniProt A0A2R4SBC1)
# Sequence (A0A2R4SBC1 entry or part of it): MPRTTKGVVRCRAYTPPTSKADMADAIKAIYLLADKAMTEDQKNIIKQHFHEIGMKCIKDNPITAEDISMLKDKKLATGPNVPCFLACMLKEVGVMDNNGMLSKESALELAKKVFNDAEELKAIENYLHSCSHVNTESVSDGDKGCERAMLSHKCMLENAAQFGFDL
# PROCEDURE_DETAILS: Binding of fluorescence probe 1-NPN to rGmolOBP7 (binding curve, Scatchard plot)
# EXPERIMENTAL_SETUP: 2 μM protein in 20 mM Tris-HCl pH 7.4, 1-NPN up to 18 μM; read-out: dissociation constant (Kd) of 1-NPN
PROPERTY_LABEL: Kd (nM)
Write the number in nM without appending the unit.

Recorded result, c1ccc(Nc2cccc3ccccc23)cc1 , Kd: 2300

* * *

# TEST_TARGET: rGmolOBP7 (recombinant GmolOBP7) (Grapholita molesta)
# PROCEDURE_DETAILS: biochemical
# Assay type: binding
# EXPERIMENTAL_SETUP: 2 μM rGmolOBP7 and 2 μM 1-NPN, 20 mM Tris-HCl pH 7.4, room temperature; three independent measurements; read-out: IC50
PROPERTY_LABEL: pIC50
Scale explanation: pIC50 corresponds to minus log10 of a concentration expressed in moles per litre.

Below are worked cases with known answers.
CCCCCCCCCC=O : 4.74
C=C/C(C)=C/CCC(=C)C : 4.95
CCCCCCCCCCCCO : 4.97
CCCCC/C=C\C=C\C(=O)OCC [Pear ester, Ethyl (E, Z)-2,4-decadienate] : 5.44
CCCCCCCCCCCC=O : 5.21

Consider the record given below.
Recorded result, CCCCCC(=O)OCCCC [Butyl hexanoate] , pIC50: 4.61

* * *

# TEST_TARGET: rGmolOBP7 (recombinant GmolOBP7) (Grapholita molesta, UniProt A0A2R4SBC1)
# PROCEDURE_DETAILS: biochemical
# Type: binding
# EXPERIMENTAL_SETUP: calculated from IC50 by Ki = [IC50]/(1+[1-NPN]/K1-NPN); read-out: Ki
pKi: −log10 of the molar value.
Is pKi at least 5? Then Y. If not, N.

CCCCCCCCCCCC=O : Y
CCC/C=C/CCCCCCCOC(C)=O [(E)-8-dodecenyl acetate] : N
CCCCCCCCC=O : N
C=CC(C)(O)CCC=C(C)CCC=C(C)C (mixture of isomers) : N

Reported pKi reaches at least 5 for CCCCCCCCCCCCCCCCO ?
N

Reported pKi reaches at least 5 for CCCCCCO ?
N

* * *

# TEST_TARGET: rGmolOBP7 (recombinant GmolOBP7) (Grapholita molesta)
# PROCEDURE_DETAILS: biochemical
# Assay type: binding
# EXPERIMENTAL_SETUP: calculated from IC50 by Ki = [IC50]/(1+[1-NPN]/K1-NPN); read-out: Ki
PROPERTY_LABEL: Ki (µM)
Write the number in µM without appending the unit.

C=C/C(C)=C/CCC(=C)C : 7.75
CC/C=C\CC1C(=O)CCC1CC(=O)OC (stereo not shown) [Methyl jasmonate] : 13
CCCCCCC=O : 10.9
CC/C=C\CCOC(C)=O [(Z)-3-Hexenyl acetate] : 13.7
CCCCOC(=O)CCC [Butyl butyrate] : 11.3

Recorded result, CCCCCCCCCC=O , Ki: 12.7

Recorded result, CCCCCCCCCCCCO , Ki: 7.48
